Each entry below carries its recorded viability, T/C.
# Tested on: KRAS PDC multicell spheroid viability
# assay.method.text: Anticancer human tumor 521955-158-R6-J3-PDC patient-derived pancreatic carcinoma cell line growth inhibition [KRAS2]
# condition.notes: second compound 3.16 µM; first compound 0.316 µM; stronger effect = lower value
measured.property: viability, T/C (%)

[[record]]
compound = "CC1(C)CCC(CN2CCN(c3ccc(C(=O)NS(=O)(=O)c4ccc(NCC5CCOCC5)c([N+](=O)[O-])c4)c(Oc4cnc5[nH]ccc5c4)c3)CC2)=C(c2ccc(Cl)cc2)C1 + C=CC(=O)N1CCN(c2nc(OCC3CCCN3C)nc3c2CCN(c2cccc4cccc(C)c24)C3)CC1CC#N"
measured_property = "viability, T/C"
experimental_result = 24.2

[[record]]
compound = "O=C(c1cc(Cc2n[nH]c(=O)c3ccccc23)ccc1F)N1CCN(C(=O)C2CC2)CC1 + C=CC(=O)N1CCN(c2nc(=O)n(-c3c(C)ccnc3C(C)C)c3nc(-c4c(O)cccc4F)c(F)cc23)C(C)C1"
measured_property = "viability, T/C"
experimental_result = 95.4

[[record]]
compound = "CCNC(=O)CC1N=C(c2ccc(Cl)cc2)c2cc(OC)ccc2-n2c(C)nnc21 (stereo not drawn) + C=CC(=O)N1CCN(c2nc(OCC3CCCN3C)nc3c2CCN(c2cccc4cccc(C)c24)C3)CC1CC#N"
measured_property = "viability, T/C"
experimental_result = 30.5


###

# Tested on: KRAS PDC multicell spheroid viability
# assay.method.text: Anticancer human tumor 521955-158-R6-J3-PDC cell line growth inhibition [KRAS2];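 further: drug exposure lasted seven days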
# condition.notes: compound alone; run of 08/26/2021
measured.property: IC50

[[record]]
molecule = "CC1OCC2(CCN(c3cnc(Sc4ccnc(N)c4Cl)c(N)n3)CC2)C1N (centres undefined)"
experimental_result = "> 10 µM"

[[record]]
molecule = "CNCc1ccccc1-c1csc(C(C)Nc2nc(C)nc3cc(OC)c(OC)cc23)c1 (centres undefined)"
experimental_result = "1.48 µM [middle of 5 runs]"

[[record]]
molecule = "C=CC(=O)N1CCN(c2nc(=O)n(-c3c(C)ccnc3C(C)C)c3nc(-c4c(O)cccc4F)c(F)cc23)C(C)C1 (centres undefined)"
experimental_result = "> 10 µM"

[[record]]
molecule = "COc1cc2nc(C)nc(NC(C)c3cc(N)cc(C(F)(F)F)c3)c2cc1OC1CCOC1 (centres undefined)"
experimental_result = "6.52 µM [middle of 5 runs]"


###

# System: KRAS PDC multicell spheroid viability
# assay.method.text: Anticancer human tumor 521955-158-R6-J3-PDC cell line growth inhibition [KRAS2];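 further: drug exposure lasted seven days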;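 on viability, T/C: 100% = DMSO vehicle wells and lower means fewer viable cells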
# condition.notes: second compound 0.1 µM; first compound 0.1 µM; stronger effect = lower value
# Source text: Multicellular complex tumor spheroid response to RAS pathway inhibitors in combination with a targeted agents in patient-derived cell lines with oncogenic KRAS variants from multiple cancer types A high-throughput screen of multi-cell type tumor spheroids was designed to identify active combinations of targeted small molecules and KRAS pathway inhibitors. […] Compounds. […] If the clinical Cmax for an agent had not been determined, the highest concentration tested was 10 microM. […]
One threshold, 70%, splits the recorded viability, T/C values: lower ones are T, equal or higher ones are F.

[[record]]
compound = "COc1cc(Nc2ncc3c(n2)-c2ccc(Cl)cc2C(c2c(F)cccc2OC)=NC3)ccc1C(=O)O + COc1cc2nc(C)nc(NC(C)c3cc(N)cc(C(F)(F)F)c3)c2cc1OC1CCOC1"
class_assignment = "F"

[[record]]
compound = "CN(C)C/C=C/C(=O)Nc1cc2c(Nc3ccc(F)c(Cl)c3)ncnc2cc1O[C@H]1CCOC1 + C=CC(=O)N1CCN(c2nc(OCC3CCCN3C)nc3c2CCN(c2cccc4cccc(C)c24)C3)CC1CC#N"
class_assignment = "T"

[[record]]
compound = "O=C(c1cc(Cc2n[nH]c(=O)c3ccccc23)ccc1F)N1CCN(C(=O)C2CC2)CC1 + C=CC(=O)N1CCN(c2nc(OCC3CCCN3C)nc3c2CCN(c2cccc4cccc(C)c24)C3)CC1CC#N"
class_assignment = "F"

[[record]]
compound = "CN(C)C/C=C/C(=O)Nc1cc2c(Nc3ccc(F)c(Cl)c3)ncnc2cc1O[C@H]1CCOC1 + COc1cc2nc(C)nc(NC(C)c3cc(N)cc(C(F)(F)F)c3)c2cc1OC1CCOC1"
class_assignment = "T"

